# key: entry, value: Kcomp, [Gd(DTPA)(H2O)]^2- vs. L pH 7.4
Assay: Ligand challenge, equilibrium constant Kcomp of [Gd(DTPA)(H2O)]2− vs. L
Assay type: physicochemical
Conditions: pH 7.4; calculated from literature thermodynamic data

Below: 5 compounds and their reported Kcomp, [Gd(DTPA)(H2O)]^2- vs. L pH 7.4.
Given the entry O=C(O)CN1CCN(CC(=O)O)Cc2cccc(n2)CN(CC(=O)O)CC1 [PCTA] , report its measured Kcomp, [Gd(DTPA)(H2O)]^2- vs. L pH 7.4.
0.019^10

Given the entry O=C(O)CN1CCNCCN(CC(=O)O)CCN(CC(=O)O)CC1 [DO3A] , report its measured Kcomp, [Gd(DTPA)(H2O)]^2- vs. L pH 7.4.
0.0005^5,6

Given the entry O=C(O)CN(CCN(CC(=O)O)CC(=O)O)CCN(CC(=O)O)CC(=O)O [DTPA] , report its measured Kcomp, [Gd(DTPA)(H2O)]^2- vs. L pH 7.4.
1

Given the entry CC(O)CN1CCN(CC(=O)O)CCN(CC(=O)O)CCN(CC(=O)O)CC1 (stereo not drawn) [HP-DO3A] , report its measured Kcomp, [Gd(DTPA)(H2O)]^2- vs. L pH 7.4.
0.19^6

Given the entry O=C(O)CN(CCN(CC(=O)O)C[C@H](COP(=O)(O)OC1CCC(c2ccccc2)(c2ccccc2)CC1)N(CC(=O)O)CC(=O)O)CC(=O)O , report its measured Kcomp, [Gd(DTPA)(H2O)]^2- vs. L pH 7.4.
2.88^5

Continuing:
Given the entry CC1(N(CC(=O)O)CC(=O)O)CN(CC(=O)O)CCN(CC(=O)O)C1 [AAZTA] , report its measured Kcomp, [Gd(DTPA)(H2O)]^2- vs. L pH 7.4.
.001^9

---

Target: HSA (Homo sapiens)
Sequence (P02768 25-609): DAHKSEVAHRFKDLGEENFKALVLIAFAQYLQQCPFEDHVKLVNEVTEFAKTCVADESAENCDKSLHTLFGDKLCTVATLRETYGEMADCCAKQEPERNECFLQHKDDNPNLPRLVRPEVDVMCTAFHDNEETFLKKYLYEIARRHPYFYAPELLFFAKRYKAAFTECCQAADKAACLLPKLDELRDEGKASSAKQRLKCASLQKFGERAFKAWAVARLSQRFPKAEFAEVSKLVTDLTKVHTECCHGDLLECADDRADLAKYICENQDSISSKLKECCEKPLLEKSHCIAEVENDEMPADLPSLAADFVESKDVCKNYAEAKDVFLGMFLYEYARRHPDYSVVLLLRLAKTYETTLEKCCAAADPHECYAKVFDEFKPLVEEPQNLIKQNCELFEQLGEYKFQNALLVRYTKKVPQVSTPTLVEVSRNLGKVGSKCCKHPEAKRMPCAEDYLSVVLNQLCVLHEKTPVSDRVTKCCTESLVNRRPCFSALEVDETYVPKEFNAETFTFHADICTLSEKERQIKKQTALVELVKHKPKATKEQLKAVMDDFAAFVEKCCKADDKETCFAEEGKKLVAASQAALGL
Assay: HSA binding by ultrafiltration and ICP-MS (Example 3)
Type: in vitro ADME
Conditions: 0.1 mM compound, 4.5% (w/v) HSA, 37° C.
# key: entry, value: % HSA binding
Answer with a number only, understood to be in %.

Below: 3 compounds and their reported % HSA binding.
Given the entry C[C@@H](NC(=O)C(CN1CCN(CC(=O)O)CCN(CC(=O)O)CCN(CC(=O)O)CC1)NC(=O)C(N)Cc1cc(I)c(O)c(I)c1)c1ccccc1 (stereo partly shown) [Gd (13-S)] , what % HSA binding was observed with HSA (Homo sapiens)?
39

Given the entry C[C@@H](NC(=O)C(CN1CCN(CC(=O)O)CCN(CC(=O)O)CCN(CC(=O)O)CC1)NC(=O)C(N)Cc1cc(I)c(O)c(I)c1)c1ccccc1 (stereo partly shown) [Gd (13-R)] , what % HSA binding was observed with HSA (Homo sapiens)?
36

Given the entry C[C@@H](C(=O)NC(CN1CCN(CC(=O)O)CCN(CC(=O)O)CCN(CC(=O)O)CC1)C(=O)N[C@@H](Cc1cc(I)c(O)c(I)c1)C(=O)O)c1ccccc1 (stereo partly shown) [Gd (19)] , what % HSA binding was observed with HSA (Homo sapiens)?
69

Let us move to another entry and its % HSA binding.
Given the entry COC(=O)CNC(=O)C(CN1CCN(CC(=O)O)CCN(CC(=O)O)CCN(CC(=O)O)CC1)NC(=O)C(N)Cc1cc(I)c(O)c(I)c1 (stereo not shown) [Gd (7)] , what % HSA binding was observed with HSA (Homo sapiens)?
6
